System: Acinetobacter baumannii
experiment summary: Antibacterial activity against Acinetobacter baumanii assessed as inhibition of bacterial growth measured after 24 hrs by two-fold serial dilution method
Format: functional
property label: MIC

> print(dat)
                   compound.structure.string        val
 1  O=C(/C(=C/c1cccs1)n1cnc2cc(Cl)ccc2c1=O)c1nccs1  512 µg/mL
 2  Cc1ccc2c(/C=C(/C(=O)c3nccs3)n3cnc4cc(Cl)ccc4c3=O)c[nH]c2c1    8 µg/mL
 3  O=C(/C(=C/c1nccs1)n1cnc2cc(Cl)ccc2c1=O)c1nccs1   16 µg/mL
 4  O=C(/C(=C/c1ncc[nH]1)n1cnc2cc(Cl)ccc2c1=O)c1nccs1  512 µg/mL
 5  O=C(/C(=C/c1ccco1)n1cnc2cc(Cl)ccc2c1=O)c1nccs1   16 µg/mL
 6  N#Cc1ccc(/C=C(/C(=O)c2nccs2)n2cnc3cc(Cl)ccc3c2=O)cc1  512 µg/mL
 7  CCn1cc(C(=O)O)c(=O)c2cc(F)c(N3CCNCC3)cc21    2 µg/mL
 8  COc1ccc(/C=C(/C(=O)c2nccs2)n2cnc3cc(Cl)ccc3c2=O)cc1  512 µg/mL
 9  O=C(/C(=C/c1ccc(F)cc1F)n1cnc2cc(Cl)ccc2c1=O)c1nccs1    2 µg/mL
10  O=C(/C(=C/c1ccc(Cl)cc1Cl)n1cnc2cc(Cl)ccc2c1=O)c1nccs1   16 µg/mL
11  O=C(/C(=C/c1csc2ccccc12)n1cnc2cc(Cl)ccc2c1=O)c1nccs1   32 µg/mL
12  O=C(/C(=C/c1c[nH]c2cc(Cl)ccc12)n1cnc2cc(Cl)ccc2c1=O)c1nccs1  512 µg/mL
13  O=C(/C(=C/c1c[nH]c2ccccc12)n1cnc2cc(Cl)ccc2c1=O)c1nccs1  256 µg/mL
14  O=C(/C(=C/c1ccc(N2CCCCC2)cc1F)n1cnc2cc(Cl)ccc2c1=O)c1nccs1  128 µg/mL
15  Cc1ccc(/C=C(/C(=O)c2nccs2)n2cnc3cc(Cl)ccc3c2=O)c(C)c1  128 µg/mL
16  CCn1cc(/C=C(/C(=O)c2nccs2)n2cnc3cc(Cl)ccc3c2=O)c2ccccc21  128 µg/mL
17  O=C(/C(=C/c1ccc2ccccc2c1)n1cnc2cc(Cl)ccc2c1=O)c1nccs1   16 µg/mL
